# ASSAY TEXT: EWS/Fli-driven NR0B1 reporter inhibitors, primary screen, A673 cells, NR0B1 luciferase, luminescence, MLPCN library (AID 651661);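 also: firefly luciferase signal divided by Alamar Blue viability fluorescence both relative to DMSO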
# ASSAY CONDITIONS: viability-normalised, at 12.6 µM
The campaign covered roughly 350,000 compounds. About 2,300 (0.66%) were called active.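 The calls were made as follows: active = mean inhibition of at least 50% after viability correction, with every replicate also passing that limit; inconclusive = mean reaches 50% but only one of two replicates passes; inactive = the rest.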 The list comes from a sample in which actives are over-represented; it also holds close analogues and randomly drawn compounds.
# valid calls are active, inactive; nothing else

COMPOUND: Cc1cc(C)nc(S/C=C/C(=O)c2ccccc2)n1
CLASS ASSIGNMENT: active
--
COMPOUND: Cc1cc(C(=O)Nc2cccc3c2O[C@H](CN(C)C(=O)Nc2ccccc2)[C@@H](C)CN([C@H](C)CO)C3=O)n(C)n1
CLASS ASSIGNMENT: inactive
--
COMPOUND: CCOC(=O)C(=Cc1ccccc1)C(=O)c1ccccc1
CLASS ASSIGNMENT: inactive
--
COMPOUND: COC(c1ccccc1)(c1ccccc1)C(Oc1nc(C)cc(C)n1)C(=O)O (centres undefined)
CLASS ASSIGNMENT: inactive
--
COMPOUND: CN(CCO)c1ccc(/C=N/Nc2nncc3ccccc23)cc1
CLASS ASSIGNMENT: active

Req: Look up the recorded call for CCCN1C[C@@H](C)[C@@H](OC)CN(C)C(=O)c2cc(NC(=O)C3CCC3)ccc2OC[C@H]1C in this test.
Resp: inactive

Req: Look up the recorded call for CCC(=O)N1CC2(CN(Cc3ccc(Cl)cc3)C2)c2c([nH]c3cc(OC)ccc23)[C@@H]1CO in this test.
Resp: inactive

Req: Look up the recorded call for O=C1C=CC(=O)N1c1ccc(N2CCCCC2)cc1 in this test.
Resp: active

Req: Look up the recorded call for C[C@@H]1CCCCO[C@@H](CN(C)Cc2ccncc2)[C@H](C)CN([C@H](C)CO)C(=O)c2cc(NC(=O)NC3CCCCC3)ccc2O1 in this test.
Resp: inactive

* * *

# ASSAY TEXT: EWS/Fli-driven NR0B1 reporter inhibitors, primary screen, A673 cells, NR0B1 luciferase, luminescence, MLPCN library (AID 651661);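 also: firefly luciferase signal divided by Alamar Blue viability fluorescence both relative to DMSO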
# ASSAY CONDITIONS: viability-normalised, at 12.6 µM
The campaign covered roughly 350,000 compounds. About 2,300 (0.66%) were called active.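 The calls were made as follows: active = mean inhibition of at least 50% after viability correction, with every replicate also passing that limit; inconclusive = mean reaches 50% but only one of two replicates passes; inactive = the rest.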 The entries come from a sample that favours actives as a whole.
# valid calls are active, inactive; nothing else

COMPOUND: COc1cccc(/C=C2\SC(=S)N(CCCC(=O)N3CCOCC3)C2=O)c1
CLASS ASSIGNMENT: inactive

COMPOUND: CO[C@@H]1CN(C)C(=O)c2ccc(NC(=O)NC(C)C)cc2OC[C@@H](C)N(Cc2ccc(-c3ccccn3)cc2)C[C@H]1C
CLASS ASSIGNMENT: inactive

COMPOUND: CC1(C(=O)Nc2cccnc2)Cc2c(-c3ccccc3)ccnc2O1 (stereo not drawn)
CLASS ASSIGNMENT: inactive

Req: Look up the recorded call for C[C@@H]1CN([C@H](C)CO)C(=O)Cc2cc(NC(=O)Nc3cccc4ccccc34)ccc2O[C@@H]1CN(C)Cc1ccc(C(F)(F)F)cc1 in this test.
Resp: inactive

Req: Look up the recorded call for CO[C@H]1CN(C)C(=O)c2ccc(NS(=O)(=O)c3ccccc3)cc2OC[C@H](C)N(Cc2nccs2)C[C@@H]1C in this test.
Resp: inactive

Req: Look up the recorded call for COc1ccc(/C=C2/SC(=O)N(CCCCCC(=O)Nc3ccccc3C(=O)O)C2=S)cc1 in this test.
Resp: active

Req: Look up the recorded call for COc1ccc(NC(=O)C2(C)Cc3c(-c4cccc(NC(C)=O)c4)ccnc3O2)cc1OC (stereo not drawn) in this test.
Resp: inactive

The reported numbers originate from PubChem BioAssay AID651661.
